Reference source: the supplement of paper PMC11061612

System: WM793B (Melanoma)
Protocol Text: combination Emax (second highest fraction inhibited in the dose matrix, 72 h); higher = more inhibition; extreme values may be limits of the assay
# combination Emax >= 0.4 gives Satisfied, anything below gives Not satisfied

Hi, just wondering whether CC1(C)CCC(CN2CCN(c3ccc(C(=O)NS(=O)(=O)c4ccc(NCC5CCOCC5)c([N+](=O)[O-])c4)c(Oc4cnc5[nH]ccc5c4)c3)CC2)=C(c2ccc(Cl)cc2)C1 [Venetoclax] + Cc1cc2ncnn2cc1Nc1ncc2c(n1)n(C1CCOCC1)c(=O)n2C [AZD7648] (first compound max 1 µM, 7x7, partner max 10 µM) shows combination Emax of 0.4 or higher. Not satisfied

Continuing:
Hi, just wondering whether COc1cccc(OCCCN)c1-c1cc(Nc2cnc(C#N)cn2)n[nH]1 [Prexasertib] + CN(C)CCCOc1ccc(-c2ccc3ncc4c(c3c2)n(C2CCOCC2)c(=O)n4C)cn1 [AZD0156] (first compound max 1 µM, 7x7, partner max 1 µM) shows combination Emax of 0.4 or higher. Satisfied

What do we get for CCN(CCO)CCCOc1ccc2c(Nc3cc(CC(=O)Nc4cccc(F)c4)[nH]n3)ncnc2c1 [AZD2811] + C=CCn1c(=O)c2cnc(Nc3ccc(N4CCN(C)CC4)cc3)nc2n1-c1cccc(C(C)(C)O)n1 [AZD1775] (first compound max 1 µM, partner max 1 µM) ? Satisfied

What do we get for C[C@@H]1COCCN1c1cc(C2([S@](C)(=N)=O)CC2)nc(-c2ccnc3[nH]ccc23)n1 [AZD6738] + O=C(c1cc(Cc2n[nH]c(=O)c3ccccc23)ccc1F)N1CCN(C(=O)C2CC2)CC1 [Olaparib] (first compound max 10 µM, 7x7, partner max 10 µM) ? Satisfied

What do we get for CN(C)CCCOc1ccc(-c2ccc3ncc4c(c3c2)n(C2CCOCC2)c(=O)n4C)cn1 [AZD0156] + O=C(c1cc(Cc2n[nH]c(=O)c3ccccc23)ccc1F)N1CCN(C(=O)C2CC2)CC1 [Olaparib] (first compound max 3 µM, partner max 3 µM) ? Not satisfied

What do we get for C[C@@H](c1ccc2nccn2c1)n1nnc2ncc(-c3cnn(C)c3)nc21 [Savolitinib] + Cc1c2c(nn1C)CSCc1cc(n(C)n1)CSc1cc(c3ccccc3c1)OCCCc1c(C(=O)O)n(C)c3c-2c(Cl)ccc13 [AZD5991] (first compound max 1 µM, 7x7, partner max 1 µM) ? Not satisfied

What do we get for CN(CCO)CC[C@H](CSc1ccccc1)Nc1ccc(S(=O)(=O)NC(=O)c2ccc(N3CCC([C@@H](O)c4ccccc4-c4ccc(Cl)cc4)CC3)cc2)cc1S(=O)(=O)C(F)(F)F [AZD4320] + CCN(CCO)CCCOc1ccc2c(Nc3cc(CC(=O)Nc4cccc(F)c4)[nH]n3)ncnc2c1 [AZD2811] (first compound max 1 µM, 7x7, partner max 1 µM) ? Not satisfied

What do we get for Cc1cc2ncnn2cc1Nc1ncc2c(n1)n(C1CCOCC1)c(=O)n2C [AZD7648] + CN(C)CCCOc1ccc(-c2ccc3ncc4c(c3c2)n(C2CCOCC2)c(=O)n4C)cn1 [AZD0156] (first compound max 10 µM, 7x7, partner max 1 µM) ? Not satisfied

What do we get for CCN(CCO)CCCOc1ccc2c(Nc3cc(CC(=O)Nc4cccc(F)c4)[nH]n3)ncnc2c1 [AZD2811] + O=C(c1cc(Cc2n[nH]c(=O)c3ccccc23)ccc1F)N1CCN(C(=O)C2CC2)CC1 [Olaparib] (first compound max 1 µM, 7x7, partner max 10 µM) ? Not satisfied

What do we get for CS(=O)(=O)CCNCc1ccc(-c2ccc3ncnc(Nc4ccc(OCc5cccc(F)c5)c(Cl)c4)c3c2)o1 [Lapatinib] + C[C@@H](Oc1cc(-c2cnn(C3CCNCC3)c2)cnc1N)c1c(Cl)ccc(F)c1Cl [Crizotinib] (first compound max 10 µM, 7x7, partner max 10 µM) ? Satisfied
